- Test system: MDA-MB-435
- PROTOCOL_TEXT: NCI tumour cell line growth inhibition, 48 h
The source made the active and inactive calls. No stated cut-off is given here; in the data, active = GI50 up to about 1.1 µM and inactive = higher.
Use one of these outcomes when replying: active, inactive

Before answering, review these 3 worked examples.
{"COMPOUND": "COC(O)C12OC3CO[Si](C(C)C)(C(C)C)O[Si](C(C)C)(C(C)C)OC3C1Oc1nc(=O)ccn12 (centres undefined)", "ASSAYED_SYSTEM": "MDA-MB-435", "LABEL_VALUE": "inactive"}
{"COMPOUND": "CC(=O)Nc1ccc2c3c(cc(O)c2c1)N(C(=O)CCCCC(=O)N1CC(CCl)c2c1cc(O)c1cc(NC(C)=O)ccc21)CC3CCl (centres undefined)", "ASSAYED_SYSTEM": "MDA-MB-435", "LABEL_VALUE": "active"}
{"COMPOUND": "O=c1nc(N2CCNCC2)oc2cc(Cl)oc(=O)c12", "ASSAYED_SYSTEM": "MDA-MB-435", "LABEL_VALUE": "inactive"}

**Q:** Dear all, I need the recorded test outcome for NC(Cc1ccccc1CP(=O)(O)O)C(=O)O (centres undefined) , thank you.
**A:** inactive

**Q:** Dear all, I need the recorded test outcome for Cc1n[nH]c(=O)n1/N=C/c1ccc([N+](=O)[O-])o1 , thank you.
**A:** inactive

**Q:** Dear all, I need the recorded test outcome for COc1ccc2c(N=[N+]=[N-])c(-c3ccccc3)c(=O)oc2c1 , thank you.
**A:** inactive

**Q:** Dear all, I need the recorded test outcome for COC(OC)C(O)C1OC=CC1n1cnc2c(N)ncnc21 (centres undefined) , thank you.
**A:** inactive

**Q:** Dear all, I need the recorded test outcome for CC1(C)CC2(C)ON=C(c3ccccc3)N2c2ccccc2N1 (centres undefined) , thank you.
**A:** inactive

**Q:** Dear all, I need the recorded test outcome for Cc1cc(O)c2c(c1)C(C1OC(CO)C(O)C(O)C1O)c1cc(O)cc(O)c1C2=O (centres undefined) , thank you.
**A:** inactive

----------
- Tested on: HT-29
- PROTOCOL_TEXT: NCI tumour cell line growth inhibition, 48 h
The source made the active and inactive calls. No stated cut-off is given here; in the data, active = GI50 up to about 1.1 µM and inactive = higher.
Use one of these outcomes when replying: true = active, false = inactive

Before answering, review these 8 worked examples.
{"COMPOUND": "CCOP(=O)(OCC)/C(=C\\N1C(=O)CC(=O)NC1=S)C(=O)OC", "LABEL_VALUE": "false"}
{"COMPOUND": "CCCCCCCCCCCC(=O)OCC1OC(OC)C(NC(=O)N(CCCl)N=O)C(O)C1O (configuration not stated)", "LABEL_VALUE": "false"}
{"COMPOUND": "CNNC1=NS(=O)(=O)c2cc(C)c(Cl)cc2S1", "LABEL_VALUE": "false"}
{"COMPOUND": "C/C=C1\\CCC2c3[nH]c4ccccc4c3CCN2C1 (configuration not stated)", "LABEL_VALUE": "false"}
{"COMPOUND": "CCOP(=O)(OCC)C(Cc1ccccc1)N=C(c1ccccc1)c1ccccc1 (configuration not stated)", "LABEL_VALUE": "false"}
{"COMPOUND": "CCOC(=O)c1cn(CC)c2cc3c(cc2c1=O)CCS3(=O)=O", "LABEL_VALUE": "false"}
{"COMPOUND": "CN(C)CCSS(=O)(=O)O", "LABEL_VALUE": "false"}
{"COMPOUND": "NCCOCCOCC(=O)O", "LABEL_VALUE": "false"}

**Q:** Dear all, I need the recorded test outcome for Cc1n(-c2ccccc2)c2c([n+]1Cc1ccc([N+](=O)[O-])cc1)C(=O)c1ccccc1C2=O , thank you.
**A:** false

**Q:** Dear all, I need the recorded test outcome for c1cc(CSP234N5CCN2CCN3CCN4CC5)cc(CSP234N5CCN2CCN3CCN4CC5)c1 , thank you.
**A:** false

**Q:** Dear all, I need the recorded test outcome for CC1(C)CC(=O)C2=C(C1)OC1(CC2c2ccc(Cl)cc2)CC(c2ccc(Cl)cc2)C2=C(CC(C)(C)CC2=O)O1 (configuration not stated) , thank you.
**A:** false

**Q:** Dear all, I need the recorded test outcome for CCOC(=O)C(=CNc1ccc(F)c(F)c1)C(=O)OCC , thank you.
**A:** false

**Q:** Dear all, I need the recorded test outcome for O=c1nc2n(CCO)c(-c3ccccc3)c(-c3ccccc3)nc-2c(=O)[nH]1 , thank you.
**A:** false

**Q:** Dear all, I need the recorded test outcome for Cc1ccc([N+](=O)[O-])cc1S(=O)(=O)Nc1ccc(C2=NOC(c3ccccc3O)C2)cc1 (configuration not stated) , thank you.
**A:** false

**Q:** Dear all, I need the recorded test outcome for Cc1nnc(N/N=C(/C(=O)C(C#N)c2ccc(Cl)cc2)C(C#N)c2ccc(Cl)cc2)n1N (configuration not stated) , thank you.
**A:** false

**Q:** Dear all, I need the recorded test outcome for CCCCCCCCCC[S+]([O-])CC(CO)NC(=O)/C=C/c1c(C)nc(O)nc1O (configuration not stated) , thank you.
**A:** false

**Q:** Dear all, I need the recorded test outcome for O=C(Nc1cccc(-c2cn3ccccc3n2)c1)c1ccncc1 , thank you.
**A:** false

**Q:** Dear all, I need the recorded test outcome for COc1cc2c(c(OC)c1OC)-c1ccc(SC)c(=O)cc1[C@@H](NCc1cccc(C#N)c1)CC2 , thank you.
**A:** true

**Q:** Dear all, I need the recorded test outcome for Cc1nc(N)c(N2CCN([N+](=O)[O-])CC2)c(O)n1 , thank you.
**A:** false

**Q:** Dear all, I need the recorded test outcome for COc1ccc2c(c1)[n+]([O-])c(C(=O)C/C(=N/OCCCc1ccccc1)C(=O)NC13CC4CC(CC(C4)C1)C3)c(C)[n+]2[O-] , thank you.
**A:** false

**Q:** Dear all, I need the recorded test outcome for CC12Oc3ccc4ccccc4c3CC1Cc1c(ccc3ccccc13)O2 (configuration not stated) , thank you.
**A:** false

**Q:** Dear all, I need the recorded test outcome for CCOC(=O)NC(=O)c1cn(CC(=O)NCC(=O)NCC(=O)NCCCN2CCN(CCCNC(=O)CNC(=O)CNC(=O)Cn3cc(C(=O)NC(=O)OCC)c(=O)[nH]c3=O)CC2)c(=O)[nH]c1=O , thank you.
**A:** false

**Q:** Dear all, I need the recorded test outcome for O=S(=O)(c1cc(Cl)ccc1Cl)N1CCN(c2cccc(Cl)c2)CC1 , thank you.
**A:** false
